System: MDA-N
Test: NCI tumour cell line growth inhibition, 48 h
Each entry below lists one item and its recorded TGI value.

COMPOUND | TESTED_ON | TGI
Cc1cc(NS(=O)(=O)c2ccc(N=Nc3c(Nc4ccccc4)nn(-c4ccc(S(=O)(=O)Nc5ccncn5)cc4)c3C)cc2)no1 | MDA-N | > 100 µM
FC1(F)SC2CCCCCCCCCCC2C1(F)F (stereo not given) | MDA-N | > 100 µM
C[C@H](N)C(=O)Nc1ccc(-c2nc3ccccc3s2)cc1Cl | MDA-N | 26.3 µM
CCOC(=O)C(C(=O)OCC)C(=S)NC1OC(COC(C)=O)C(OC(C)=O)C(OC(C)=O)C1OC(C)=O (stereo not given) | MDA-N | > 100 µM
COc1nc(C(Cl)(Cl)Cl)c(Cl)c(OC)c1Cl | MDA-N | 57.5 µM

If you can, please state the reported TGI value of C[C@H](OC(=O)/C=C/c1ccc(O)c(O)c1)[C@H](C)OC(=O)/C=C/c1ccc(O)c(O)c1 .
18.4 µM

Look up TGI for this compound: CC1(C)C(=O)C2(N)CCC1C2 (stereo not given)
> 100 µM

Query (compound): COC(=O)/C=C/[C@H]1[C@H](C)N1S(=O)(=O)c1ccc(C)cc1 (stereo not given in full) ; field requested: TGI
> 100 µM

Which TGI reading was recorded for the compound Nc1nc(=O)n(C2CC(O)C(CO)O2)c2nc(-c3ccc(-c4ccccc4)cc3)cnc12 (stereo not given) ?
> 100 µM

Data request, read-out TGI, for CCN(CC)C(=O)N1CN(c2ccccc2)C2(CCN(CCCC3(c4ccc(F)cc4)OCCO3)CC2)C1=O
35.7 µM
